molecular target: Pgp (LCC6MDR cells) (Homo sapiens, UniProt P08183); assay: Cell proliferation assay: Pgp-modulating activity, reversal of anticancer drug resistance in LCC6MDR cells; settings: RF = (IC50 without modulator)/(IC50 with 0.5 μM modulator), paclitaxel, LCC6MDR
Sequence (P08183 whole entry): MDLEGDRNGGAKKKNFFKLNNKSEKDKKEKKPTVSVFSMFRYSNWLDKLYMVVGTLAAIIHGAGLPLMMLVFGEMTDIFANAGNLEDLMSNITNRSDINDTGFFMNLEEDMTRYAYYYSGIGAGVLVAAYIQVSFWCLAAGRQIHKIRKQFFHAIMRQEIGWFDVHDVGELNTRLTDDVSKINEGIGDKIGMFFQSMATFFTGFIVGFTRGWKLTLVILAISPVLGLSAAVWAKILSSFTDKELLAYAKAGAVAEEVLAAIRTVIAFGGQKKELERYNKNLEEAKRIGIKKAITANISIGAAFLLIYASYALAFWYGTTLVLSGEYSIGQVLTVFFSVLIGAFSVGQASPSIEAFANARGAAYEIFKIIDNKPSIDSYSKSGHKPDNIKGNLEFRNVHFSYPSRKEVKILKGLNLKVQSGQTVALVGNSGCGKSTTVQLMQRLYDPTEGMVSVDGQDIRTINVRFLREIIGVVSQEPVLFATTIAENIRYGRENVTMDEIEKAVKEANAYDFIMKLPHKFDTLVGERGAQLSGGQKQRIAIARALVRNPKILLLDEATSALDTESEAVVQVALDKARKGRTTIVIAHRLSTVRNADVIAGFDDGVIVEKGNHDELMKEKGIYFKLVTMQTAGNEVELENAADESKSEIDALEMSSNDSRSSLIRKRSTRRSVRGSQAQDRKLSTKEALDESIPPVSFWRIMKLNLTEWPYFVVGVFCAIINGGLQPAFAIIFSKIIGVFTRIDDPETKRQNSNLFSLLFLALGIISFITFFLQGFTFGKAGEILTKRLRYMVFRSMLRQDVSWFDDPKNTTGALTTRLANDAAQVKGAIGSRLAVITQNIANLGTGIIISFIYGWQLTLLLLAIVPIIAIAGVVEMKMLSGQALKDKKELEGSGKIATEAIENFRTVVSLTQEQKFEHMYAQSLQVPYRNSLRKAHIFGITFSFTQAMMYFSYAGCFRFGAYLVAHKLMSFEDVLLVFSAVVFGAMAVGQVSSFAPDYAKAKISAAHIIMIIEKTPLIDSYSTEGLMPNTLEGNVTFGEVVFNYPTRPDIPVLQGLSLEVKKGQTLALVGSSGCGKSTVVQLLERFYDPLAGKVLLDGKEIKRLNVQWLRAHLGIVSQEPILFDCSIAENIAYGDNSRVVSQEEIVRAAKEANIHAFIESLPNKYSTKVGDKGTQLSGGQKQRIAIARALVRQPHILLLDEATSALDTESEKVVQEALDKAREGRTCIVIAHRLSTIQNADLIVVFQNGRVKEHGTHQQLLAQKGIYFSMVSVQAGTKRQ
readout-type: RF (Relative Fold), cpd at 0.5 μM

                                   molecule                               test_target  reading
0  Cc1ccc2oc(-c3ccc(OCCOCCN(CCOCCOc4ccc(-c5cc(=O)c6cc(C)ccc6o5)cc4)C(=O)OC(C)(C)C)cc3)cc(=O)c2c1 [Compound 17c]  Pgp (LCC6MDR cells) (Homo sapiens, UniProt P08183)    (9.6)
